- assay-procedure: Half life in plasma
- Assay type: ADME, cell-free
parameter-measured: half-life

N#Cc1nc(CCCN2CCOC[C@H]2C(N)=O)cc(-c2cccc(C(F)(F)F)c2)n1 ... > 2.5 h

Attention now turns to another entry.
So for `N#Cc1nc(CCCNC2(C(N)=O)CCOCC2)cc(-c2cccc(C(F)(F)F)c2)n1` , the logged half-life turned out to be > 2.5 h

* * *

- assay-system: UniProt:P33261
- Sequence (P33261 whole entry): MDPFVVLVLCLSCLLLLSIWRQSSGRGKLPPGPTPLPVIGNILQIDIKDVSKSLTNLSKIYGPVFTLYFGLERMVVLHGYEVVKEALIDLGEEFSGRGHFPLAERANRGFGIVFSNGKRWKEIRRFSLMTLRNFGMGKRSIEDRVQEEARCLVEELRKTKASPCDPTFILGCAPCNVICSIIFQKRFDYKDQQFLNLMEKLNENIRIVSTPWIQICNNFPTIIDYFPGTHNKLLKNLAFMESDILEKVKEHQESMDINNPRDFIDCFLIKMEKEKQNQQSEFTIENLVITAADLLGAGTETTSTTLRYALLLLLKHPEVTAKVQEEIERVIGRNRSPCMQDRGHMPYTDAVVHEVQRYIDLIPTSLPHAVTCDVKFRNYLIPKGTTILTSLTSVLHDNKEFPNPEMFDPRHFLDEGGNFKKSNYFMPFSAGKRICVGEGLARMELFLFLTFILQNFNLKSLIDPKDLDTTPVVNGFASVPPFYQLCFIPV
parameter-measured: IC50

So for `CC(C)(NCCCc1cc(-c2cccc(C(F)(F)F)c2)nc(C#N)n1)C(N)=O` , the logged IC50 turned out to be > 35 µM

* * *

- assay-system: Cytochrome P450 2C9 (Homo sapiens, UniProt P11712)
- Sequence (P11712 whole entry): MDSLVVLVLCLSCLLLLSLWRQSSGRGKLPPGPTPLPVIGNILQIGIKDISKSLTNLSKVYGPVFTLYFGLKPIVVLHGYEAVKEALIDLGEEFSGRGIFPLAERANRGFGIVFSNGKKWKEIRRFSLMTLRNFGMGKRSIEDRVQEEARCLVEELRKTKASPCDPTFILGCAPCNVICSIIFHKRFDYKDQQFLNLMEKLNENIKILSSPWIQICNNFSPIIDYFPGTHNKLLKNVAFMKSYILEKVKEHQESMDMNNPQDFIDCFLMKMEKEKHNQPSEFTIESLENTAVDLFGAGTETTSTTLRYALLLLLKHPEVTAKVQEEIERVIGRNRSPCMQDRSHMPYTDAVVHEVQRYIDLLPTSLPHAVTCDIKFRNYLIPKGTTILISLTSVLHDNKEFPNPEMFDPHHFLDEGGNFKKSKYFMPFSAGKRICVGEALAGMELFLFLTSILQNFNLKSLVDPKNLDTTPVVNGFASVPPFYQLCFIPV
parameter-measured: IC50

Entry `CC(C)(NCCCc1cc(-c2cccc(C(F)(F)F)c2)nc(C#N)n1)C(N)=O` , tested on Cytochrome P450 2C9 (Homo sapiens, UniProt P11712), has a reported IC50 of > 35 µM
